Tested on: HepG2
Test: Disruption of mitochondrial membrane potential in human HepG2 cells assessed as rhodamine123 negative cells at cytotoxic IC50 after 72 hrs by propidium iodide staining based fluorescence spectroscopic analysis (reference value: 11.7 +/- 6.8%)
Format: functional
Endpoint Name: Activity (%)
Kindly answer with a numeric value in %, unit omitted.

Consider the compound "CC1(C)CC[C@]2(C(=O)NCCCOCCOCCOCCCN)CC[C@]3(C)C(=CC[C@@H]4[C@@]5(C)C[C@@H](O)[C@H](O)C(C)(C)[C@@H]5CC[C@]43C)[C@@H]2C1" and give its measured Activity. 40.85

Consider the compound "CC1(C)CC[C@]2(C(=O)NCCCOCCOCCOCCCN)CC[C@]3(C)C(=CC[C@@H]4[C@@]5(C)CC[C@H](O)C(C)(C)[C@@H]5CC[C@]43C)[C@@H]2C1" and give its measured Activity. 19.6

Consider the compound "COCCOCCOCC(=O)O[C@@H]1C[C@]2(C)[C@H]3CC=C4[C@@H]5CC(C)(C)CC[C@]5(C(=O)O)CC[C@@]4(C)[C@]3(C)CC[C@H]2C(C)(C)[C@H]1OC(=O)COCCOCCOC" and give its measured Activity. 43.2

Consider the compound "COCCOCCOCC(=O)O[C@H]1CC[C@]2(C)[C@H]3CC=C4[C@@H]5CC(C)(C)CC[C@]5(C(=O)O)CC[C@@]4(C)[C@]3(C)CC[C@H]2C1(C)C" and give its measured Activity. 86.05

Consider the compound "COCCOCCOCC(=O)O[C@@H]1C[C@]2(C)[C@H]3CC=C4[C@@H]5CC(C)(C)CC[C@]5(C(=O)OCc5ccccc5)CC[C@@]4(C)[C@]3(C)CC[C@H]2C(C)(C)[C@H]1OC(=O)COCCOCCOC" and give its measured Activity. 54.25

====

Assay: Cell cycle arrest in mouse B16F10 cells assessed as accumulation at G2/M phase at cytotoxic IC50 after 72 hrs by propidium iodide staining based flow cytometry (reference value: 1.01 +/- 0.13%)
Format: functional, B16-F10
Please note: Activity exactly at 4% is Not satisfied. Only values below 4% get Satisfied.

Dear colleague, could you confirm whether Activity of "CC1(C)CC[C@]2(C(=O)NCCCOCCOCCOCCCN)CC[C@]3(C)C(=CC[C@@H]4[C@@]5(C)C[C@@H](O)[C@H](O)C(C)(C)[C@@H]5CC[C@]43C)[C@@H]2C1" falls below 4%? Thanks. Not satisfied

Dear colleague, could you confirm whether Activity of "COCCOCCOCC(=O)O[C@@H]1C[C@]2(C)[C@H]3CC=C4[C@@H]5CC(C)(C)CC[C@]5(C(=O)OCc5ccccc5)CC[C@@]4(C)[C@]3(C)CC[C@H]2C(C)(C)[C@H]1OC(=O)COCCOCCOC" falls below 4%? Thanks. Satisfied

Dear colleague, could you confirm whether Activity of "CC1(C)CC[C@]2(C(=O)NCCCOCCOCCOCCCN)CC[C@]3(C)C(=CC[C@@H]4[C@@]5(C)CC[C@H](O)C(C)(C)[C@@H]5CC[C@]43C)[C@@H]2C1" falls below 4%? Thanks. Not satisfied

Dear colleague, could you confirm whether Activity of "COCCOCCOCC(=O)O[C@@H]1C[C@]2(C)[C@H]3CC=C4[C@@H]5CC(C)(C)CC[C@]5(C(=O)O)CC[C@@]4(C)[C@]3(C)CC[C@H]2C(C)(C)[C@H]1OC(=O)COCCOCCOC" falls below 4%? Thanks. Satisfied

Dear colleague, could you confirm whether Activity of "COCCOCCOCC(=O)O[C@H]1CC[C@]2(C)[C@H]3CC=C4[C@@H]5CC(C)(C)CC[C@]5(C(=O)O)CC[C@@]4(C)[C@]3(C)CC[C@H]2C1(C)C" falls below 4%? Thanks. Satisfied

====

Test system: HepG2
Experiment: Induction of apoptosis in human HepG2 cells assessed as early apoptotic cells at cytotoxic IC50 after 72 hrs by Annexin V-FITC/propidium iodide staining based flow cytometry (reference value: 0.3 +/- 0.01%)
Type: functional
Endpoint Name: Activity (%)
Kindly answer with a numeric value in %, unit omitted.

Consider the molecule "COCCOCCOCC(=O)O[C@@H]1C[C@]2(C)[C@H]3CC=C4[C@@H]5CC(C)(C)CC[C@]5(C(=O)O)CC[C@@]4(C)[C@]3(C)CC[C@H]2C(C)(C)[C@H]1OC(=O)COCCOCCOC" and give its measured Activity. 14.75

Consider the molecule "CC1(C)CC[C@]2(C(=O)NCCCOCCOCCOCCCN)CC[C@]3(C)C(=CC[C@@H]4[C@@]5(C)CC[C@H](O)C(C)(C)[C@@H]5CC[C@]43C)[C@@H]2C1" and give its measured Activity. 35.9

Consider the molecule "CC1(C)CC[C@]2(C(=O)NCCCOCCOCCOCCCN)CC[C@]3(C)C(=CC[C@@H]4[C@@]5(C)C[C@@H](O)[C@H](O)C(C)(C)[C@@H]5CC[C@]43C)[C@@H]2C1" and give its measured Activity. 46.75

Consider the molecule "COCCOCCOCC(=O)O[C@@H]1C[C@]2(C)[C@H]3CC=C4[C@@H]5CC(C)(C)CC[C@]5(C(=O)OCc5ccccc5)CC[C@@]4(C)[C@]3(C)CC[C@H]2C(C)(C)[C@H]1OC(=O)COCCOCCOC" and give its measured Activity. 18.65

Consider the molecule "COCCOCCOCC(=O)O[C@H]1CC[C@]2(C)[C@H]3CC=C4[C@@H]5CC(C)(C)CC[C@]5(C(=O)O)CC[C@@]4(C)[C@]3(C)CC[C@H]2C1(C)C" and give its measured Activity. 38.65

====

Experiment: Induction of apoptosis in mouse B16F10 cells assessed as late apoptotic cells at cytotoxic IC50 after 72 hrs by Annexin V-FITC/propidium iodide staining based flow cytometry (reference value: 0.75 +/- 0.21%)
Format: functional, B16-F10
Rule: 1 (yes) for Activity not less than 40%, 0 (no) for anything less.

Is it the case that "CC1(C)CC[C@]2(C(=O)NCCCOCCOCCOCCCN)CC[C@]3(C)C(=CC[C@@H]4[C@@]5(C)C[C@@H](O)[C@H](O)C(C)(C)[C@@H]5CC[C@]43C)[C@@H]2C1" has Activity reaching or exceeding 40%? 0 (no)

Is it the case that "COCCOCCOCC(=O)O[C@@H]1C[C@]2(C)[C@H]3CC=C4[C@@H]5CC(C)(C)CC[C@]5(C(=O)OCc5ccccc5)CC[C@@]4(C)[C@]3(C)CC[C@H]2C(C)(C)[C@H]1OC(=O)COCCOCCOC" has Activity reaching or exceeding 40%? 1 (yes)

Is it the case that "CC1(C)CC[C@]2(C(=O)NCCCOCCOCCOCCCN)CC[C@]3(C)C(=CC[C@@H]4[C@@]5(C)CC[C@H](O)C(C)(C)[C@@H]5CC[C@]43C)[C@@H]2C1" has Activity reaching or exceeding 40%? 0 (no)

Is it the case that "COCCOCCOCC(=O)O[C@@H]1C[C@]2(C)[C@H]3CC=C4[C@@H]5CC(C)(C)CC[C@]5(C(=O)O)CC[C@@]4(C)[C@]3(C)CC[C@H]2C(C)(C)[C@H]1OC(=O)COCCOCCOC" has Activity reaching or exceeding 40%? 1 (yes)

====

Tested on: HT-29
Assay: Cytotoxicity against human HT-29 cells assessed as growth inhibition after 72 hrs by MTT assay
Type: functional, cell-based
Details: HT-29, 72 h
Endpoint Name: pIC50
// returns pIC50 (minus log10 of molar concentration), number only

Consider the molecule CC(=O)OC1CC[C@]2(C)[C@H]3CC=C4[C@@H]5CC(C)(C)CC[C@]5(C(=O)NCCCOCCOCCOCCCNC(=O)[C@]56CCC(C)(C)C[C@H]5C5=CC[C@@H]7[C@@]8(C)CC[C@H](OC(C)=O)C(C)(C)[C@@H]8CC[C@@]7(C)[C@]5(C)CC6)CC[C@@]4(C)[C@]3(C)CC[C@H]2C1(C)C (single isomer, unassigned) and give its measured pIC50. 4.08

Consider the molecule "CC1(C)CC[C@]2(C(=O)NCCCOCCOCCOCCCNC(=O)[C@]34CCC(C)(C)C[C@H]3C3=CC[C@@H]5[C@@]6(C)CC[C@H](O)C(C)(C)[C@@H]6CC[C@@]5(C)[C@]3(C)CC4)CC[C@]3(C)C(=CC[C@@H]4[C@@]5(C)CC[C@H](O)C(C)(C)[C@@H]5CC[C@]43C)[C@@H]2C1" and give its measured pIC50. 4.07

====

Tested on: HepG2
Experiment: Cell cycle arrest in human HepG2 cells assessed as accumulation at S phase at cytotoxic IC50 after 72 hrs by propidium iodide staining based flow cytometry (reference value: 54.71 +/- 2.37%)
Type: functional
I'd be grateful if you could share measured Activity for these entries.

Query for HepG2: what Activity does the record show for "CC1(C)CC[C@]2(C(=O)NCCCOCCOCCOCCCN)CC[C@]3(C)C(=CC[C@@H]4[C@@]5(C)CC[C@H](O)C(C)(C)[C@@H]5CC[C@]43C)[C@@H]2C1" ? 46.97%

Query for HepG2: what Activity does the record show for "CC1(C)CC[C@]2(C(=O)NCCCOCCOCCOCCCN)CC[C@]3(C)C(=CC[C@@H]4[C@@]5(C)C[C@@H](O)[C@H](O)C(C)(C)[C@@H]5CC[C@]43C)[C@@H]2C1" ? 50.45%

Query for HepG2: what Activity does the record show for "COCCOCCOCC(=O)O[C@H]1CC[C@]2(C)[C@H]3CC=C4[C@@H]5CC(C)(C)CC[C@]5(C(=O)O)CC[C@@]4(C)[C@]3(C)CC[C@H]2C1(C)C" ? 45.44%

Query for HepG2: what Activity does the record show for "COCCOCCOCC(=O)O[C@@H]1C[C@]2(C)[C@H]3CC=C4[C@@H]5CC(C)(C)CC[C@]5(C(=O)O)CC[C@@]4(C)[C@]3(C)CC[C@H]2C(C)(C)[C@H]1OC(=O)COCCOCCOC" ? 26.7%

Query for HepG2: what Activity does the record show for "COCCOCCOCC(=O)O[C@@H]1C[C@]2(C)[C@H]3CC=C4[C@@H]5CC(C)(C)CC[C@]5(C(=O)OCc5ccccc5)CC[C@@]4(C)[C@]3(C)CC[C@H]2C(C)(C)[C@H]1OC(=O)COCCOCCOC" ? 19.76%
